system: Liver microsomes; assay: Intrinsic clearance in human liver microsomes at 1 uM after 60 mins; type: ADME, Microsome; settings: 1 h
quantity: CLH (L/min)

See these solved cases before continuing.
get_value(item= `O=C1CCc2ccccc2N1CCCN1CCC(n2c(=O)[nH]c3ccccc32)CC1` , readout=CLH) returns 3.9

Entry `O=C1CCc2cc(F)ccc2N1CCCN1CCC(n2c(=O)[nH]c3ccccc32)CC1` , CLH reported as 6.2

Reported CLH of `O=C1COc2ccccc2N1CCCN1CCC(n2c(=O)[nH]c3cnccc32)CC1` : 1.7

Kindly note the recorded CLH for `O=C1CCc2cccc(F)c2N1CCCN1CCC(n2c(=O)[nH]c3ccccc32)CC1` , which is 5.5

Sure, the documented CLH for `O=C1CCc2c(F)cccc2N1CCCN1CCC(n2c(=O)[nH]c3ccccc32)CC1` is 4.2

[I] O=C1CCc2ccccc2N1OCCN1CCC(n2c(=O)[nH]c3ccccc32)CC1
[II] O=C1COc2ccccc2N1CCCN1CCC(n2c(=O)[nH]c3cccnc32)CC1
[III] O=C1CCc2ccc(F)cc2N1CCCN1CCC(n2c(=O)[nH]c3ccccc32)CC1
[IV] O=C1COc2ccccc2N1CCCN1CCC(n2c(=O)[nH]c3ccccc32)CC1
Returns the items ordered by CLH, from maximum to minimum. # format: label list in the order the request specifies
III, IV, II, I

[1] O=C1CCc2ccccc2N1CCCN1CCC(c2ccc3[nH]ccc3c2)CC1
[2] O=C1COc2ccccc2N1CCCN1CCC(n2c(=O)[nH]c3ccncc32)CC1
Please tell me which of the two, 1 or 2 , has the higher reported CLH value. Mark your answer with the label of the selected entry.
1

[a] O=C1COc2ccccc2N1CCCN1CCC(n2c(=O)[nH]c3cc(F)ccc32)CC1
[b] O=C1CCc2ncccc2N1CCCN1CCC(n2c(=O)[nH]c3ccccc32)CC1
Please tell me which of the two, a or b , has the higher reported CLH value. To answer, give the label that identifies your chosen option.
a
(a: 8.8 L/min, b: 2.8 L/min)

[I] O=C1CCc2cnccc2N1CCCN1CCC(n2c(=O)[nH]c3ccccc32)CC1
[II] O=C1CCc2ccncc2N1CCCN1CCC(n2c(=O)[nH]c3ccccc32)CC1
Input pair: I , II . Output: entry with lower CLH. Label of pick, please.
II

====

assay: Dissociation constant, pKa of the compound; assay type: physicochemical
quantity: pKa

Looking up `O=C1CCc2ccccc2N1CCCN1CCC(n2c(=O)[nH]c3ccccc32)CC1` , I found its pKa recorded as 7.6

Given item `O=C(Cc1ccccc1)NC1CCN(CCCN2C(=O)COc3ccccc32)CC1` , the value recorded as its pKa is 7.9

Entry `O=C1CCc2ccccc2N1CCCN1CCC(c2ccc3[nH]ccc3c2)CC1` ; pKa = 9

Lab book: pKa of O=c1[nH]c2ccccc2n1C1CCN(CCOc2ccccc2)CC1 [OXIPEROMIDE] noted as 7.4

====

experiment: Lipophilicity, logP of the compound; type: physicochemical; settings: octanol/water
quantity: logP

[1] O=C1CCc2ccccc2N1CCCN1CCC(n2c(=O)[nH]c3ccccc32)CC1
[2] O=C1CCc2ccccc2N1CCCN1CCC(c2ccc3[nH]ccc3c2)CC1
// which entry has the larger logP value, 1 or 2 ? State the label of the item chosen.
2
